System: Enterococcus faecalis
ASSAY_DETAILS: Antibacterial activity against Enterococcus faecalis SR1004 clinical isolate assessed as growth inhibition by broth microdilution method
Type: functional

STRUCTURE_SMILES_STRING: CONC(=O)N1CCN(c2c(F)cc(N3C[C@H](CNC(=S)OC)OC3=O)cc2F)CCO1
MIC: 1 µg/mL

STRUCTURE_SMILES_STRING: NC(=O)N1CCN(c2c(F)cc(N3C[C@H](CNc4ccon4)OC3=O)cc2F)CCN1
MIC: 1 µg/mL

STRUCTURE_SMILES_STRING: CC(=S)NC[C@H]1CN(c2ccc(N3CCNN(C(N)=O)CC3)c(F)c2)C(=O)O1
MIC: 0.5 µg/mL

STRUCTURE_SMILES_STRING: COC(=S)NC[C@H]1CN(c2ccc(N3CCNN(C(C)=O)CC3)c(F)c2)C(=O)O1
MIC: 0.5 µg/mL

STRUCTURE_SMILES_STRING: O=C1O[C@@H](Cn2ccnn2)CN1c1ccc(N2CCn3c(=O)c4cccnc4n3CC2)c(F)c1
MIC: 4 µg/mL

STRUCTURE_SMILES_STRING: CC(=O)NC[C@H]1CN(c2ccc(-c3ccc(N4CCNOCC4)nc3)c(F)c2)C(=O)O1
MIC: 1 µg/mL

STRUCTURE_SMILES_STRING: CC(=O)NC[C@H]1CN(c2cc(F)c(N3CCn4c(=O)c5cc(N)cnc5n4CC3)c(F)c2)C(=O)O1
MIC: 2 µg/mL

STRUCTURE_SMILES_STRING: COC(=S)NC[C@H]1CN(c2ccc(N3CCn4c(=O)c5cccnc5n4CC3)c(F)c2)C(=O)O1
MIC: 0.5 µg/mL

STRUCTURE_SMILES_STRING: O=CN1CCN(c2c(F)cc(N3C[C@H](Cn4ccnn4)OC3=O)cc2F)CCN1
MIC: 1 µg/mL

STRUCTURE_SMILES_STRING: O=CN1CCN(c2c(F)cc(N3C[C@H](CNc4ccon4)OC3=O)cc2F)CCN1
MIC: 1 µg/mL

STRUCTURE_SMILES_STRING: O=C1O[C@@H](Cn2ccnn2)CN1c1cc(F)c(N2CCn3c(=O)c4cccnc4n3CC2)c(F)c1
MIC: 1 µg/mL

STRUCTURE_SMILES_STRING: NC(=O)N1CCN(c2c(F)cc(N3C[C@H](Cn4ccnn4)OC3=O)cc2F)CCN1
MIC: 2 µg/mL

STRUCTURE_SMILES_STRING: COC(=S)NC[C@H]1CN(c2ccc(N3CCNN(C(N)=O)CC3)c(F)c2)C(=O)O1
MIC: 0.25 µg/mL

STRUCTURE_SMILES_STRING: CC(=O)NC[C@H]1CN(c2cc(F)c(N3CCON(C(C)=O)CC3)c(F)c2)C(=O)O1
MIC: 2 µg/mL

STRUCTURE_SMILES_STRING: O=C(C(F)F)N1CCN(c2c(F)cc(N3C[C@H](CNc4ccon4)OC3=O)cc2F)CCN1
MIC: 0.5 µg/mL

STRUCTURE_SMILES_STRING: CONC(=O)N1CCN(c2ccc(N3C[C@H](CNC(=S)OC)OC3=O)cc2F)CCN1
MIC: 0.5 µg/mL

STRUCTURE_SMILES_STRING: CC(=O)NC[C@H]1CN(c2cc(F)c(N3CCn4c(=O)c5cc(Br)cnc5n4CC3)c(F)c2)C(=O)O1
MIC: 2 µg/mL

STRUCTURE_SMILES_STRING: CC(=O)NC[C@H]1CN(c2cc(F)c(N3CCn4c(=O)c5cc(Cl)cnc5n4CC3)c(F)c2)C(=O)O1
MIC: 2 µg/mL

###

SYSTEM: Cytochrome P450 1A2 (Homo sapiens, UniProt P05177)
Sequence (P05177 whole entry): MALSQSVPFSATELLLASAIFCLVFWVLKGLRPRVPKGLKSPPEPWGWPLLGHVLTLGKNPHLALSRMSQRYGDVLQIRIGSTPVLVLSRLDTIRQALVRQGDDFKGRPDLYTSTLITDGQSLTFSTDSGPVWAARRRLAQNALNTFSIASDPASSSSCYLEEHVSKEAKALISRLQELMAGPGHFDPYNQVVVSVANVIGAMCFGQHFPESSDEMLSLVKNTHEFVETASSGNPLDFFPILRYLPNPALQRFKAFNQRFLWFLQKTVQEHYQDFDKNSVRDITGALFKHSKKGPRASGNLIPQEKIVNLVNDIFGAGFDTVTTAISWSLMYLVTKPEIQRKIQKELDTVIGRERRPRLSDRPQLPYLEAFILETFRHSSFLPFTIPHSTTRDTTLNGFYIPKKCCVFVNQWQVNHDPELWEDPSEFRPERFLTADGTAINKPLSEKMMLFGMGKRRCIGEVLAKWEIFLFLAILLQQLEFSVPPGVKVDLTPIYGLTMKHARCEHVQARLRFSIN
// IC50 lookup, one value per entry
MEASUREMENT_TYPE: IC50

STRUCTURE_SMILES_STRING: COC(=S)NC[C@H]1CN(c2ccc(N3CCNN(C(=O)C(F)F)CC3)c(F)c2)C(=O)O1
RESULT: > 20 µM

STRUCTURE_SMILES_STRING: CNC(=O)N1CCN(c2ccc(N3C[C@H](CNC(=S)OC)OC3=O)cc2F)CCN1
RESULT: > 20 µM

###

System: Enterococcus faecalis
ASSAY_DETAILS: Potency index, ratio of linezolid MIC to compound MIC for Enterococcus faecalis SR1004 clinical isolate
Type: functional

STRUCTURE_SMILES_STRING: COC(=S)NC[C@H]1CN(c2ccc(N3CCNN(C=O)CC3)c(F)c2)C(=O)O1
SYSTEM: Enterococcus faecalis
Ratio: 4

STRUCTURE_SMILES_STRING: COC(=S)NC[C@H]1CN(c2cc(F)c(N3CCON(C(N)=O)CC3)c(F)c2)C(=O)O1
SYSTEM: Enterococcus faecalis
Ratio: 4

STRUCTURE_SMILES_STRING: COC(=S)NC[C@H]1CN(c2cc(F)c(N3CCNN(C(N)=O)CC3)c(F)c2)C(=O)O1
SYSTEM: Enterococcus faecalis
Ratio: 4

STRUCTURE_SMILES_STRING: CC(=S)NC[C@H]1CN(c2ccc(N3CCNN(C(N)=O)CC3)c(F)c2)C(=O)O1
SYSTEM: Enterococcus faecalis
Ratio: 4

STRUCTURE_SMILES_STRING: COC(=S)NC[C@H]1CN(c2ccc(N3CCNN(C(N)=O)CC3)c(F)c2)C(=O)O1
SYSTEM: Enterococcus faecalis
Ratio: 4

STRUCTURE_SMILES_STRING: O=CN1CCN(c2c(F)cc(N3C[C@H](Cn4ccnn4)OC3=O)cc2F)CCN1
SYSTEM: Enterococcus faecalis
Ratio: 4

STRUCTURE_SMILES_STRING: CC(=O)NC[C@H]1CN(c2ccc(-c3ccc(N4CCNOCC4)nc3)c(F)c2)C(=O)O1
SYSTEM: Enterococcus faecalis
Ratio: 2

STRUCTURE_SMILES_STRING: CC(=S)NC[C@H]1CN(c2cc(F)c(N3CCNN(C(N)=O)CC3)c(F)c2)C(=O)O1
SYSTEM: Enterococcus faecalis
Ratio: 4

STRUCTURE_SMILES_STRING: O=CN1CCN(c2c(F)cc(N3C[C@H](CNc4ccon4)OC3=O)cc2F)CCN1
SYSTEM: Enterococcus faecalis
Ratio: 4

STRUCTURE_SMILES_STRING: O=C1O[C@@H](Cn2ccnn2)CN1c1ccc(-c2ccc(N3CCNOCC3)nc2)c(F)c1
SYSTEM: Enterococcus faecalis
Ratio: 2

###

SYSTEM: MAO-B (Rattus norvegicus)
Sequence (P19643 whole entry): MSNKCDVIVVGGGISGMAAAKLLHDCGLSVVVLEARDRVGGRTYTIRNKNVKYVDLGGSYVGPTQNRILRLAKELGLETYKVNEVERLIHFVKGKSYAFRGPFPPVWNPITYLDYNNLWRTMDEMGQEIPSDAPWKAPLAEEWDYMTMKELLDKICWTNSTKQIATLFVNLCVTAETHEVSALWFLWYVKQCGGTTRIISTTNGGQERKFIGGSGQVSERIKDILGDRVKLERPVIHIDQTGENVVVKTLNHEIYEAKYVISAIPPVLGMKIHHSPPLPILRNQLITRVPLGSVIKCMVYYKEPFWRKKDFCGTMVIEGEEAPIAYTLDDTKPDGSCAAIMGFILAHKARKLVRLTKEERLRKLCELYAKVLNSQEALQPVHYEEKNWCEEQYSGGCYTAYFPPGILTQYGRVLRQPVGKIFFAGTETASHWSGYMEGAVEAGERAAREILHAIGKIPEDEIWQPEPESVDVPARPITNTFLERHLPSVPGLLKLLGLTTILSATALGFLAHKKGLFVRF
ASSAY_DETAILS: Inhibition of MAO-B in rat forebrain using [14C]PEA as substrate at 30 uM incubated for 20 mins prior to substrate addition measured after 10 mins by liquid scintillation counting analysis
Type: tissue-based
CONDITION_DESCRIPTION: probe [14C]PEA
Reported inhibition at 10 min, 30 µM values for the following compounds.

STRUCTURE_SMILES_STRING: COC(=S)NC[C@H]1CN(c2ccc(N3CCNN(C(=O)C(F)F)CC3)c(F)c2)C(=O)O1
inhibition at 10 min, 30 µM (%): 0.1
--
STRUCTURE_SMILES_STRING: CNC(=O)N1CCN(c2ccc(N3C[C@H](CNC(=S)OC)OC3=O)cc2F)CCN1
inhibition at 10 min, 30 µM (%): 3.1

###

System: Staphylococcus aureus
ASSAY_DETAILS: Antibacterial activity against Staphylococcus aureus SR20549 clinical isolate assessed as growth inhibition by broth microdilution method
Type: functional

STRUCTURE_SMILES_STRING: COC(=S)NC[C@H]1CN(c2ccc(N3CCNN(C(C)=O)CC3)c(F)c2)C(=O)O1
UNIT_ANNOTATION: µg/mL
MIC: 0.5

STRUCTURE_SMILES_STRING: COC(=S)NC[C@H]1CN(c2ccc(N3CCNN(C(=O)NO)CC3)c(F)c2)C(=O)O1
UNIT_ANNOTATION: µg/mL
MIC: 0.5

STRUCTURE_SMILES_STRING: O=C(C(F)F)N1CCN(c2c(F)cc(N3C[C@H](Cn4ccnn4)OC3=O)cc2F)CCN1
UNIT_ANNOTATION: µg/mL
MIC: 0.5
